Reported endpoint: melting point

Some entries whose results are on file:
>>> value("Fc1cccc(Cl)c1[C@@H]1C[C@H](c2ccccn2)Nc2ncnn21 (relative stereo)")
"232 °C"
>>> value("Fc1cccc(Cl)c1[C@@H]1C[C@H](c2ccc(Cl)cc2Cl)Nc2ncnn21 (relative stereo)")
"267 to 269 °C"
>>> value("Cc1ccc(C2=CC(c3c(F)cccc3Cl)n3ncnc3N2)cc1C (centres unmarked)")
"217 to 218 °C"

Pending compound:
Q: What melting point value was documented for this compound, Fc1cccc(Cl)c1[C@@H]1C[C@H](c2ccc(-c3ccccc3)cc2)Nc2ncnn21 (relative stereo) ?
A: 213 to 215 °C

----------
Below: a set of entries, each annotated with reported melting point.

Some entries whose results are on file:
>>> value("Clc1ccc(C2=CC(c3c(Cl)cccc3Cl)n3ncnc3N2)cc1 (stereo not shown)")
"235 °C"
>>> value("Fc1cccc(Cl)c1[C@@H]1C[C@H](c2ccccc2Cl)Nc2ncnn21 (relative stereo)")
"271 to 272 °C"

Pending compound:
Q: What melting point value was documented for this compound, Fc1cccc(Cl)c1C1C=C(c2ccccc2Cl)Nc2ncnn21 (stereo not shown) ?
A: 192 to 193 °C

----------
Below: a set of entries, each annotated with reported melting point.

>>> value("Fc1cccc(Cl)c1-c1cc(-c2ccc(Cl)cc2)nc2ncnn12")
"238 to 239 °C"
>>> value("Fc1cccc(Cl)c1C1C=C(c2ccc(Br)cc2)Nc2ncnn21 (stereo not shown)")
"242 to 243 °C"
>>> value("Fc1cccc(Cl)c1C1C=C(c2ccc(Cl)c(Cl)c2)Nc2ncnn21 (stereo not shown)")
"246 to 247 °C"
>>> value("Fc1ccc([C@H]2C[C@@H](c3c(F)cccc3Cl)n3ncnc3N2)cc1 (relative stereo)")
"240 to 241 °C"
>>> value("Fc1ccc(C2=CC(c3c(F)cccc3Cl)n3ncnc3N2)c(F)c1 (stereo not shown)")
"186 to 188 °C"
>>> value("Fc1ccc(C2C=C(c3ccc(Cl)cc3)Nc3ncnn32)c(Cl)c1 (stereo not shown)")
"250 to 251 °C"

Pending compound:
Q: What melting point value was documented for this compound, Fc1cccc(Cl)c1[C@@H]1C[C@H](c2ccc(Cl)c(Cl)c2)Nc2ncnn21 (relative stereo) ?
A: 252 to 254 °C
